System: 276233-004-R-J1-PDC KRAS spheroids with HUVEC/MSC, viability;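 further: cells exposed to agents for seven days before viability read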
Assay summary: Anticancer human tumor 276233-004-R-J1-PDC patient-derived colon adenocarcinoma cell line growth inhibition [KRAS2]; active means viability on the fitted dose curve at most 10% of control; inactive means the rest
Assay context: second compound 3.16 µM; first compound 1 µM
Response enum: TRUE (active), FALSE (inactive)

Below, 2 molecules whose answers are already recorded.
Molecule: CC(=O)OC12COC1CC(O)C1(C)C(=O)C(O)C3=C(C)C(OC(=O)C(O)C(NC(=O)OC(C)(C)C)c4ccccc4)CC(O)(C(OC(=O)c4ccccc4)C21)C3(C)C (stereo not drawn) + COc1cc2nc(C)nc(NC(C)c3cc(N)cc(C(F)(F)F)c3)c2cc1OC1CCOC1
Class label: FALSE

Molecule: COc1cc(Nc2ncc3c(n2)-c2ccc(Cl)cc2C(c2c(F)cccc2OC)=NC3)ccc1C(=O)O + CNCc1ccccc1-c1csc(C(C)Nc2nc(C)nc3cc(OC)c(OC)cc23)c1
Class label: TRUE

Now consider a different molecule.
## Input For O=C(c1cc(Cc2n[nH]c(=O)c3ccccc23)ccc1F)N1CCN(C(=O)C2CC2)CC1 + COc1cc2nc(C)nc(NC(C)c3cc(N)cc(C(F)(F)F)c3)c2cc1OC1CCOC1 , what call appears in the results of this test?
## Output FALSE

Reference for the values: PubChem BioAssay AID1963873
